# Tested target: 2C7 antibody
# Test details: VLP library affinity selection on 2C7, clones sequenced
Measurement label: copies among sequenced affinity-selected clones (copies)
Reply numerically in copies, unit not repeated.

Past entries and their recorded results:
[Q] Identify the reported copies among sequenced affinity-selected clones for the following entry. LDYQRV (peptide)
[A] 7

[Q] Identify the reported copies among sequenced affinity-selected clones for the following entry. LDYMRT (peptide)
[A] 4

[Q] Identify the reported copies among sequenced affinity-selected clones for the following entry. LDYERI (peptide)
[A] 3

[Q] Identify the reported copies among sequenced affinity-selected clones for the following entry. ELWRGT (peptide)
[A] 2

// next item, copies among sequenced affinity-selected clones requested
[Q] Identify the reported copies among sequenced affinity-selected clones for the following entry. VDYERI (peptide)
[A] 2

----------
Entries and their copies among sequenced affinity-selected clones
# Tested target: 2C7 antibody
# Test details: VLP library affinity selection on 2C7, clones sequenced
Reply numerically in copy, unit not repeated.

Past entries and their recorded results:
[Q] Identify the reported copies among sequenced affinity-selected clones for the following entry. PLWKGN (peptide)
[A] 1

[Q] Identify the reported copies among sequenced affinity-selected clones for the following entry. LDYEGN (peptide)
[A] 1

---
[Q] Identify the reported copies among sequenced affinity-selected clones for the following entry. PLWRGT (peptide)
[A] 1
